Assay: osmotic lysis modulators in infected erythrocytes, primary screen, PSAC antagonist project, cell-based, P. falciparum Indochina, OD700, 3 h (AID 1156)
Details: higher = more signal, called active from +8 up or from −8 down
Please assign a class to every record based on measured z-score, with ranges low: < 0.02; middle: ≥ 0.02 and < 1; high: ≥ 1

# count of solved cases: 2
{"Compound": "COc1cc(NN2C(C(O)c3cc(OC)c(OC)c(OC)c3)C=CC3C(=O)N(c4ccccc4)C(=O)C32)cc(OC)c1OC (configuration not stated)", "Discrete Label": "high"}
{"Compound": "Cc1ccc(N2C(=O)c3ccccc3[C@](C)(C(=O)NCc3ccccc3)[C@@H]2c2ccc(CO)cc2)nc1", "Discrete Label": "middle"}

Query: For the record C=C(/C(=C/C[C@H](OC(=O)c1ccncc1)c1cccc(OCCO)c1)c1cnc2ccccc2c1)C(C)C , report the class its z-score corresponds to.
Reply: low

Query: For the record Cc1ccc([C@H]2C(C(=O)O)=C[C@@H](C(C)(C)C)N2S(=O)(=O)c2ccc(C)cc2)cc1 , report the class its z-score corresponds to.
Reply: low

Query: For the record C=C(COC)/C(=C/C[C@H](OC(C)=O)c1cccc(OCCO)c1)c1cnc2ccccc2c1 , report the class its z-score corresponds to.
Reply: high

Query: For the record COCCOC(=O)N1C(=O)[C@@]2(c3cc(C#CC4=CCCCC4)ccc31)[C@H](C(=O)N1CCCCCCC1)[C@H]1C(=O)O[C@H](c3ccccc3)[C@H](c3ccccc3)N1[C@@H]2c1ccc(OCCO)cc1 , report the class its z-score corresponds to.
Reply: low

Query: For the record C=CCC(OC(C)=O)[C@@H]1[C@@H](N(Cc2ccc(-c3cccc(C(F)(F)F)c3)o2)C(=O)Cc2ccc(OC)cc2)c2cc(OCCCO)ccc2N1C(=O)Cc1ccc2ccccc2c1 (some centres not stated) , report the class its z-score corresponds to.
Reply: high

Query: For the record C=CC1c2cc(O)c(OC)cc2CCN1Cc1ccc([N+](=O)[O-])o1 (configuration not stated) , report the class its z-score corresponds to.
Reply: low

Query: For the record CN(C)C(=O)[C@@]1(Cc2ccccc2)COC(c2ccc(OCCCO)cc2)=N1 , report the class its z-score corresponds to.
Reply: high

Query: For the record O=C1[C@@]23C=C(Br)[C@H](C[C@@H]2COC3)[C@@]12CO2 , report the class its z-score corresponds to.
Reply: low

Query: For the record COCCOC(=O)N1C(=O)[C@@]2(c3ccccc31)[C@H](c1ccc(OCCO)cc1)N1[C@H](c3ccccc3)[C@H](c3ccccc3)OC(=O)[C@H]1[C@@H]2C(=O)N1CCCCCCC1 , report the class its z-score corresponds to.
Reply: middle

Query: For the record C=CCNC(=O)[C@H]1[C@@H]2C(=O)O[C@@H](c3ccccc3)[C@@H](c3ccccc3)N2[C@@H](c2ccc(OCCO)cc2)[C@]12C(=O)N(C(=O)OCCOC)c1ccc(C#Cc3ccc(OC)cc3)cc12 , report the class its z-score corresponds to.
Reply: low

Query: For the record C=CCNC(=O)[C@H]1[C@@H]2C(=O)O[C@@H](c3ccccc3)[C@@H](c3ccccc3)N2[C@@H](c2ccc(OCCO)cc2)[C@]12C(=O)Nc1ccc(C#CCNC(N)=O)cc12 , report the class its z-score corresponds to.
Reply: high

Query: For the record CN(C)CCCNC(=O)[C@@H]1c2ccccc2C(=O)N(C2CCCCC2)[C@H]1c1ccc(CO)cc1 , report the class its z-score corresponds to.
Reply: high

Query: For the record COCCOC(=O)N1C(=O)[C@@]2(c3ccccc31)[C@H](c1ccccc1OCCO)N1[C@H](c3ccccc3)[C@H](c3ccccc3)OC(=O)[C@H]1[C@@H]2C(=O)N1CCCCCCC1 , report the class its z-score corresponds to.
Reply: middle

Query: For the record C=C(COC)/C(=C/C[C@@H](OC(C)=O)c1ccc(CO)o1)c1cc(C(=O)OC)ccc1OC , report the class its z-score corresponds to.
Reply: middle
